target: human TRPA1 channel (Homo sapiens (Human)); assay: hTRPA1 CHO Ca2+ FLIPR Tetra assay, block of cinnamaldehyde induced calcium influx; type: cell-based; settings: read-out: hTRPA1 IC50 (10 min); CHO cells expressing TRPA1; compounds incubated 10 minutes at room temperature before cinnamaldehyde agonist; Hill coefficient fixed to 1.5
property measured: IC50 (nM)

The examples below pair each entry with its known result.
{"columns": ["record smiles", "test target", "IC50 (nM)"],
 "data": [
  ["Cc1cc(C#N)nc2ncn(Cc3nc([C@H]4C[C@](F)(c5ccc(Cl)cc5)C4)no3)c(=O)c12", "human TRPA1 channel (Homo sapiens (Human))", 19.4],
  ["Cn1cnc2ncn(Cc3nc([C@H]4[C@@H]5CN(c6cccc(-c7ccncc7)c6)C[C@@H]54)no3)c(=O)c21", "human TRPA1 channel (Homo sapiens (Human))", 67]
]}

[1] Cn1cnc2ncn(Cc3nc([C@H]4[C@@H]5CN(c6cc(F)ccc6F)C[C@@H]54)no3)c(=O)c21
[2] Cn1cnc2ncn(Cc3nc([C@H]4C[C@H](Oc5cccc(F)c5)C4)no3)c(=O)c21
[ask] Response body: label of entry with the larger IC50; valid values 1 , 2 . // caller expects the label of the chosen entry
[reply] 2

[I] Cn1cnc2ncn(Cc3nc([C@H]4[C@@H]5CN(c6cccc(-c7cnco7)c6)C[C@@H]54)no3)c(=O)c21
[II] Cn1cnc2ncn(Cc3nc([C@H]4[C@@H]5C=C(c6ccc7ccncc7c6)C[C@@H]54)no3)c(=O)c21
[ask] Response body: label of entry with the larger IC50; valid values I , II . // caller expects the label of the chosen entry
[reply] II
(II: 58.7 nM, I: 26.2 nM)

[1] Cn1cnc2ncn(Cc3nc([C@H]4[C@@H]5C=C(c6cccc(C(F)F)c6)C[C@@H]54)no3)c(=O)c21
[2] Cn1cnc2ncn(Cc3nc([C@H]4[C@@H]5CN(c6ccc(Cl)c(Cl)c6)C[C@@H]54)no3)c(=O)c21
[ask] In terms of reported IC50, does 1 or 2 have the smaller number? // caller expects the label of the chosen entry
[reply] 1
(1: 31.9 nM, 2: 64.3 nM)

###

target: human TRPA1 channel (Homo sapiens (Human), UniProt O75762); assay: hTRPA1 CHO Ca2+ FLIPR Tetra assay, block of cinnamaldehyde induced calcium influx; format: cell-based; settings: read-out: hTRPA1 IC50 (90 min); CHO cells expressing TRPA1; compounds incubated 90 minutes at room temperature before cinnamaldehyde agonist; Hill coefficient fixed to 1.5
Sequence (O75762 whole entry): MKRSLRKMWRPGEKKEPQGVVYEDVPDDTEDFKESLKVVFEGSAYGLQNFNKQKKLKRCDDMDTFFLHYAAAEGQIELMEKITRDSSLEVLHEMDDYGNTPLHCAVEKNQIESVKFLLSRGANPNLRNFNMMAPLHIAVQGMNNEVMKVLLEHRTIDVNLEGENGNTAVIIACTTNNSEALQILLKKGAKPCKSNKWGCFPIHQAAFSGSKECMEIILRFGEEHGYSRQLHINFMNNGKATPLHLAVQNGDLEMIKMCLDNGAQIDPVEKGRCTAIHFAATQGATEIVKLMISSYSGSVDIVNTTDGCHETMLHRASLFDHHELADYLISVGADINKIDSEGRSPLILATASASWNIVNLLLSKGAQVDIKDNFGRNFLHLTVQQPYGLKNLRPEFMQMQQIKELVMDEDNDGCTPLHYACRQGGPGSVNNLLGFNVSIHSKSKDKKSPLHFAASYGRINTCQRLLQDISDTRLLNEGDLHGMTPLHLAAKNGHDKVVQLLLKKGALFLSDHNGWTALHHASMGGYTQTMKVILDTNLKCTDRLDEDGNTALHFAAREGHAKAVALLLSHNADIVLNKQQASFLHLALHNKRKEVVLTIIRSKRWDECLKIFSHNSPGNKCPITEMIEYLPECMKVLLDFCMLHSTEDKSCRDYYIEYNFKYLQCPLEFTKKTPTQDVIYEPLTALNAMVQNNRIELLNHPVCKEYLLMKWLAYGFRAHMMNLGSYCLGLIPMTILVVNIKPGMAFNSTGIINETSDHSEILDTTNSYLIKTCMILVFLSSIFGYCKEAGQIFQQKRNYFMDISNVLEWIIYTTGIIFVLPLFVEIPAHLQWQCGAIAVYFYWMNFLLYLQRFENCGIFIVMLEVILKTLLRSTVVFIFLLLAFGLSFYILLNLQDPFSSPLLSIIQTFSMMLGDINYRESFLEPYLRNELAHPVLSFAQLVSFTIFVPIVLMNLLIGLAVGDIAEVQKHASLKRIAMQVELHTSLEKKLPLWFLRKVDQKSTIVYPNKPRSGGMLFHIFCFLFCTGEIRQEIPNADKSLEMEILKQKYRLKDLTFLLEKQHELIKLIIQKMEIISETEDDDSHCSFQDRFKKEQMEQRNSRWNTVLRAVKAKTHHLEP
pIC50: −log10 of the molar value.
property measured: pIC50

The examples below pair each entry with its known result.
{"columns": ["record smiles", "pIC50"],
 "data": [
  ["COc1ccc(C2=C[C@H]3[C@@H](C2)[C@@H]3c2noc(Cn3cnc4ncn(C)c4c3=O)n2)cc1", 7.80],
  ["Cn1c(NC2COC2)nc2ncn(Cc3nc([C@H]4[C@@H]5C=C(c6ccccc6)C[C@@H]54)no3)c(=O)c21", 7.35],
  ["Cc1ncn2ncn(Cc3nc([C@H]4[C@@H]5CN(c6cc(Cl)ccn6)C[C@@H]54)no3)c(=O)c12", 7.30],
  ["Cn1cnc2ncn(Cc3nc([C@H]4[C@@H]5C=C(c6cccc(F)c6)C[C@@H]54)no3)c(=O)c21", 8.77],
  ["Cn1cc(-c2cccc(N3C[C@@H]4[C@H](C3)[C@H]4c3noc(Cn4ncc5ncccc5c4=O)n3)c2)cn1", 7.39]
]}

[I] Cn1cnc2ncn(Cc3nc([C@H]4[C@@H]5CN(c6cccc(C#N)c6)C[C@@H]54)no3)c(=O)c21
[II] Cn1cnc2ncn(Cc3nc([C@@H]4[C@H]5C=C(c6ccc(F)c(F)c6F)C[C@H]54)no3)c(=O)c21
[III] Cn1cnc2ncn(Cc3nc([C@H]4[C@@H]5CN(c6cccc(C#N)n6)C[C@@H]54)no3)c(=O)c21
[IV] Cn1nnc2ncn(Cc3nc([C@@H]4CC[C@@H](c5ccc(F)cc5)C4)no3)c(=O)c21
[V] O=c1c2cccnc2ncn1Cc1nc([C@H]2[C@@H]3C=C(c4cc(Cl)ccn4)C[C@@H]32)no1
[ask] # rank_down: sort by pIC50, max first Respond with an ordered listing of the labels, as requested.
[reply] II, I, IV, III, V

###

molecular target: human TRPA1 channel (Homo sapiens (Human)); assay: hTRPA1 CHO Ca2+ FLIPR Tetra assay, block of cinnamaldehyde induced calcium influx; type: cell-based; details: read-out: hTRPA1 IC50 (90 min); CHO cells expressing TRPA1; compounds incubated 90 minutes at room temperature before cinnamaldehyde agonist; Hill coefficient fixed to 1.5
pIC50: −log10 of the molar value.
property measured: pIC50

The examples below pair each entry with its known result.
{"columns": ["record smiles", "assay result"],
 "data": [
  ["Cn1cnc2ncn(Cc3nc([C@@H]4[C@H]5C=C(c6cccc(F)c6)C[C@H]54)no3)c(=O)c21", 8.64],
  ["Cn1cnc2ncn(Cc3nc([C@@H]4[C@H]5C=C(c6ccc(Cl)cc6)C[C@H]54)no3)c(=O)c21", 7.92]
]}

[a] Cc1cnn2ncn(Cc3nc([C@H]4[C@@H]5CN(c6cc(F)ccn6)C[C@@H]54)no3)c(=O)c12
[b] CCNc1nc2ncn(Cc3nc([C@H]4[C@@H]5C=C(c6ccccc6)C[C@@H]54)no3)c(=O)c2n1C
[ask] In terms of reported pIC50, does a or b have the smaller number? // caller expects the label of the chosen entry
[reply] b

###

target: human TRPA1 channel (Homo sapiens (Human), UniProt O75762); assay: hTRPA1 CHO Ca2+ FLIPR Tetra assay, block of cinnamaldehyde induced calcium influx; format: cell-based; settings: read-out: hTRPA1 IC50 (10 min); CHO cells expressing TRPA1; compounds incubated 10 minutes at room temperature before cinnamaldehyde agonist; Hill coefficient fixed to 1.5
property measured: IC50 (nM)

{"columns": ["compound", "IC50, nM"],
 "data": [
  ["Cn1cnc2ncn(Cc3nc([C@H]4[C@@H]5C=C(c6ccc7scnc7c6)C[C@@H]54)no3)c(=O)c21 [Example Compound 112]", 36],
  ["Cc1ccnc2ncn(Cc3nc([C@H]4C[C@](F)(c5ccc(Cl)cc5)C4)no3)c(=O)c12 [Example Compound 38]", 28.9],
  ["Cn1cnc2ncn(Cc3nc([C@H]4[C@@H]5CN(c6ccc(Cl)cc6)C[C@@H]54)no3)c(=O)c21 [Example Compound 25]", 20.4]
]}
